# Lookup of reported %Inh keyed by entry
# Test system: INSR;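 further: KINOMEscan kinase panel screen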
# experimental-conditions: concentration: 1 μM, replicates: in singlicate; n = 1
value-type: %Inh (%)

Cc1ccc(C(=O)Nc2ccc(Nc3ccnc4cc(-c5ccccn5)ccc34)cc2O)cc1.Cl | 1
CC(=O)Nc1nc2cnc(Nc3cc(NC(=O)c4cccc(CCC#N)c4)ccc3C)nc2s1 | 34
CS(=O)(=O)c1ccc(-c2c(-c3ncn[nH]3)sc(N3CCOCC3)c2C#N)cc1 | 0
COc1ccccc1CNC(=O)c1cc(C(=O)c2ccccc2C)c[nH]1 | 8
Cc1ccc(NC(=O)Nc2cccc(Cl)c2)cc1-c1ccc(C(=O)Nc2ccncc2)cc1 | 0
Cc1cccc(-c2nc(Nc3cccc(C(N)=O)c3)c3ccccc3n2)n1 | 0
CN1C(=O)C(Nc2ccc(Cl)c(C(=O)O)c2)=C(c2ccc(Cl)cc2)C1=O | 0
Cl.NC(=O)c1cccc(Nc2nccc(Nc3ccc(Oc4cccc(Cl)c4)c(Cl)c3)n2)c1 | 6
